Experiment: qHTS for Inhibitors of human tyrosyl-DNA phosphodiesterase 1 (TDP1): qHTS in cells in absence of CPT; further: nearly all actives have a fitted effect of over 55% in size
Conditions: DT40 Tdp1-/- hTDP1 cells, no CPT, ATP luminescence, 48 h
The whole screen tested about 420,000 compounds, of which about 64,000 (15%) were called active. Inconclusive results (about 27%) are left out. The call rests on the fitted dose curve; in most records, active means well fitted inhibition curve with a large enough effect; inconclusive means small, poorly fitted or top-dose-only effect; inactive means flat fitted curve, though single readings scatter. Not all results are given here.
Outcomes: active, inactive

compound	label-value
CC12CN3CC(C)(CN(C1)C3c1ccc(Cl)cc1Cl)C2=O (configuration not stated)	inactive
Nc1ccc2nc3c(=O)[nH]c(=S)[nH]c3nc2c1	inactive
CSc1ncc(C(=O)NCCCc2ccccc2)c(C)n1	inactive
C#CCOCCOCCOCCNc1nc(N2CCN(C(=O)Cn3cc(CCCCN)nn3)CC2)nc(N2CCN(C(=O)[C@H](CCCCN)n3cc(CCC(=O)O)nn3)CC2)n1	inactive
COc1ccc(OC)c(CNC(=O)CCc2nc(-c3cccs3)no2)c1	inactive
CC(Sc1nncn1C)C(=O)Nc1cc(C(F)(F)F)ccc1N1CCOCC1 (configuration not stated)	inactive
Cc1ccc(NC(=O)Cn2cnc3nc4c(cc3c2=O)CCCC4)cc1Cl	inactive
CCOc1ccc(NC(=O)CC(Cc2ccc(Cl)cc2)C(=O)O)cc1 (configuration not stated)	inactive
COc1cccc(/C=N/Nc2ncc(C(F)(F)F)cc2Cl)c1O	active
CC1CC1C(=O)OCC(=O)c1c(N)n(C)c(=O)n(C)c1=O (configuration not stated)	inactive
Cc1cc([N+](=O)[O-])c(-c2ccc(/C=N/n3cnnc3)o2)cc1Cl	inactive
COc1cc(/C=C2\SC(=S)N(Nc3ncc(C(F)(F)F)cc3Cl)C2=O)cc(OC)c1OC	inactive
COc1cccc(C2Nc3cccc4cccc(c34)N2)c1	inactive
COc1ccc(CCNC(=O)c2ccc(NC(=O)CC3SC(N4CCCCC4)=NC3=O)cc2)cc1OC (configuration not stated)	inactive
O=C(NCCc1ccccc1)c1cnc2sc(N3CCCC3)nn2c1=O	active
COc1cccc(/C(C)=N/Nc2ncc(Cl)cc2Cl)c1	inactive
CC(Nc1ccccc1)c1cccnc1 (configuration not stated)	inactive
O=C(C[C@H]1CC[C@H]2[C@@H](COC[C@H](O)CN2C(=O)c2ccccn2)O1)N1CCN(c2ccccc2)CC1	inactive
COC(=O)C1C(=O)NCC1c1ccc(C)cc1 (configuration not stated)	inactive
Cc1ccccc1OCCOc1ccc([N+](=O)[O-])cc1/C=N/n1cnnc1	active
COc1ccc(CCNC(=O)c2cnc3sc(N4CCCCCC4)nn3c2=O)cc1OC	active
CC(C)NC(=O)NC(=O)CSc1nnc(-c2ccccc2F)n1N	inactive

====

Assay: qHTS for Inhibitors of human tyrosyl-DNA phosphodiesterase 1 (TDP1): qHTS in cells in absence of CPT; further: nearly all actives have a fitted effect of over 55% in size
Details: DT40 Tdp1-/- hTDP1 cells, no CPT, ATP luminescence, 48 h
Procedure: Human tyrosyl-DNA phosphodiesterase 1 (TDP1) is a novel repair gene, and we propose to use it as a new target for anticancer drug development. […] For the primary screen, Tdp1-/-;hTDP1 cells will be exposed to small molecules in the presence or absence of CPT, and their growth kinetics will be evaluated after 48 hours by measuring ATP activity. […] The hit compounds will then be evaluated in the presence or absence of CPT using Tdp1-/- cells. […]
Screen size: about 420,000 compounds; about 64,000 (15%) were called active. About 27% were inconclusive and are not listed. Calls follow the shape of the dose curve; as a rule, active = well fitted inhibition curve with a large enough effect; inconclusive = small, poorly fitted or top-dose-only effect; inactive = flat fitted curve, though single readings scatter. These entries were drawn from the full list.
Outcomes: t = active, f = inactive

compound	label-value
Cc1nn(C(C)(C)C)c(OC(=O)CC(C)C)c1S(=O)(=O)c1ccccc1	f
CCOC(=O)c1sc(-c2cccc([N+](=O)[O-])c2)cc1N	f
O=C(c1cc2cc(Br)cc(Br)c2oc1=O)N1CCOCC1	f
O=C1Nc2c(Br)cc(Br)cc2C1(O)N1CCOCC1 (stereo unspecified)	t
COc1cc(OC)cc(C(=O)Nc2nnc(SCC(=O)NCC3CCCO3)s2)c1 (stereo unspecified)	f
CCOc1ccccc1N1C(=O)CC(Sc2nccc(C)n2)C1=O (stereo unspecified)	t
Cc1c(C(=O)NCc2ccccc2)cnn1-c1ccccc1	f
CC(=O)Nc1ccc(N2C(=O)CC(Sc3nccc(C)n3)C2=O)cc1 (stereo unspecified)	f
CCOC(=O)C1=C(COC(=O)[C@H](C)NS(=O)(=O)c2ccccc2F)NC(=O)NC1C (stereo partly specified)	f
CCOc1ccccc1-n1c(SCC(=O)N2CCCC2)nnc1-c1ccoc1C	f
CCOCCOC(=O)C1=C(C)NC(=O)NC1c1ccc2c(c1)OCO2 (stereo unspecified)	f

====

Assay: qHTS for Inhibitors of human tyrosyl-DNA phosphodiesterase 1 (TDP1): qHTS in cells in absence of CPT; further: nearly all actives have a fitted effect of over 55% in size
Settings: DT40 Tdp1-/- hTDP1 cells, no CPT, ATP luminescence, 48 h
Screen size: about 420,000 compounds; about 64,000 (15%) were called active. Inconclusive results (about 27%) are left out. The call rests on the fitted dose curve; in most records, active means well fitted inhibition curve with a large enough effect; inconclusive means small, poorly fitted or top-dose-only effect; inactive means flat fitted curve, though single readings scatter. Only a sample is shown.
Outcomes: true (active), false (inactive)

molecule	label-value
NC(=O)C1CCN(C(=O)COc2ccc3c4c(c(=O)oc3c2)CCC4)CC1	false
CC(=O)c1cccc(-c2cnc3c(NC=O)cc(-c4ccccc4Oc4ccccc4)cn23)c1	true
COc1ccc(-c2nnc(SC(C)C(=O)NC3CC3)o2)cc1 (stereo not given)	false
Cn1c(C(=O)Nc2cccc(C(F)(F)F)c2)cc2c(=O)n3ccccc3nc21	true
O=C(O)Cc1ccc(NC(=O)Nc2cccc3ccccc23)cc1	false
CCOC(=O)c1ccc(NC(=O)c2cc(=O)[nH]c3ccccc23)cc1	false
COc1ccc(CC(=O)Nc2sc(Cc3ccccc3)c(C)c2C(N)=O)cc1	false
COc1c(F)c(F)c(-c2csc(N)n2)c(F)c1F	false
Cc1nn(C(C)C(=O)N2CCOCC2)c(=O)c2nn(-c3ccccc3)c(C)c12 (stereo not given)	false
O=C(Nc1cccc(Cl)c1)c1csnn1	false
O=C(Nc1ccccc1)c1nnsc1S(=O)(=O)c1ccc(Cl)cc1	true
O=C(O)c1ccccc1Cc1ccc(F)c2ccccc12	false
CCCCN1CC(C)(C)[C@H](CC(=O)Nc2ccc(Br)cc2)C1=O	true
O=C(NCc1ccccc1)C1CCCN(S(=O)(=O)c2cccs2)C1 (stereo not given)	false
COc1ccc(-c2nnc(SCC(=O)Nc3ccccc3C)o2)cc1OC	false
COc1ccc(-c2cc(NC=O)c3ncc(-c4ccccc4)n3c2)cc1OC	true
COc1ccc2oc(=O)cc(-c3cc4ccccc4o3)c2c1	false
COc1ccc(CCNC(=O)COC(=O)c2cc(=O)c3ccccc3o2)cc1	false
Cc1ccccc1NC(=O)c1ccccc1	false
N/C(Cc1ccc([N+](=O)[O-])cc1)=N\OC(=O)C1CCCCC1	false
CCn1c(-c2ccncc2)n[nH]c1=S	false
Cc1cc(SCc2c(F)cccc2Cl)nc(=O)[nH]1	false
CCC(Sc1nnc(-c2ccc(OC)cc2)c(-c2ccc(OC)cc2)n1)C(=O)NC1CCCCC1 (stereo not given)	true
COc1ccc(NC(=O)N2CCCn3nc(C)cc32)cc1OC	false
Cc1cc(C)cc(N(CC(=O)Nc2c(C)n(C)n(-c3ccccc3)c2=O)S(C)(=O)=O)c1	false
O=[N+]([O-])c1ccccc1/C=C/CN1CCCC(CO)C1 (stereo not given)	false
CCn1cc(NC(=O)Nc2ccc(OC)c(OC)c2)c(C(N)=O)n1	false
Cc1cccc(C)c1NC(=O)CN(C)C(=O)CCC(=O)c1ccccc1	false
CC1(C)CN(CCc2ccccc2)C(=O)[C@H]1CC(=O)Nc1ccc(Br)cc1	false
O=C(Nc1ccc(OC(F)(F)F)cc1)c1cc2c(=O)n3ccccc3nc2s1	false
O=C(Nc1ccc(F)cc1)N1CCN(c2ccc(F)cc2)CC1	false
Cc1ccc(C(C(=O)NC2CCCC2)N(Cc2ccco2)C(=O)CCC(=O)Nc2ccccn2)cc1 (stereo not given)	true
NC(=O)c1ccc(NC(=O)COC(=O)c2ccc([N+](=O)[O-])cc2)cc1	false
Cc1ccc(C(=O)NCC(=O)OCC(=O)NC2CCCCCCC2)cc1	false
COc1ccc(-c2nnn(CC(=O)N(CCO)C(C(=O)NC3CCCC3)c3ccc(F)cc3)n2)cc1 (stereo not given)	false
CC(=O)N1CCN(CC(C)(C)NS(=O)(=O)c2ccc(C)cc2)CC1	false
Cc1ccccc1NC(=O)c1nn(-c2ccc(F)c(F)c2)ccc1=O	false
Cc1ccc2nsnc2c1NC(=O)c1ccccc1[N+](=O)[O-]	false
CCn1cc(C(=O)NCCO)c(=O)c2cc(F)c(N3CCN(C)CC3)cc21	false
CC(Sc1nc2c([nH]c3ccccc32)c(=O)n1C)c1ccccc1 (stereo not given)	true
COc1ccc(NC(=O)NC(C)c2c(-n3cccc3)sc(C)c2C)cc1OC (stereo not given)	true
Cc1cccc(C)c1NC(=O)C(Cl)C(=O)c1ccccc1 (stereo not given)	true
C=C(C)CSc1nnc(-c2ccc(C)cc2)n1N	false
O=C(COc1ccc2oc3c(c2c1)CCCC3)Nc1ccccn1	false
CN=C1S/C(=C\c2c(OC)cc(OC)cc2OC)C(=O)N1C	false

====

Assay: qHTS for Inhibitors of human tyrosyl-DNA phosphodiesterase 1 (TDP1): qHTS in cells in absence of CPT; further: nearly all actives have a fitted effect of over 55% in size
Details: DT40 Tdp1-/- hTDP1 cells, no CPT, ATP luminescence, 48 h
Protocol: Human tyrosyl-DNA phosphodiesterase 1 (TDP1) is a novel repair gene, and we propose to use it as a new target for anticancer drug development. […] For the primary screen, Tdp1-/-;hTDP1 cells will be exposed to small molecules in the presence or absence of CPT, and their growth kinetics will be evaluated after 48 hours by measuring ATP activity. […] The hit compounds will then be evaluated in the presence or absence of CPT using Tdp1-/- cells. […]
In all, about 420,000 compounds went through this assay and about 64,000 (15%) were called active. About 27% were inconclusive and are not listed. The call rests on the fitted dose curve; in most records, active means well fitted inhibition curve with a large enough effect; inconclusive means small, poorly fitted or top-dose-only effect; inactive means flat fitted curve, though single readings scatter. These entries were drawn from the full list.
Outcomes: active, inactive

molecule	label-value
CC(=NNC(=O)c1ccc2nc[nH]c2c1)c1ccc(Br)cc1	inactive
CN(CC(=O)Nc1c(Cl)cccc1Cl)C(=O)c1ccncc1	inactive
CC(C)c1cc(C(=O)N(C)C2CCCN(Cc3ccccc3F)C2)n(C)n1 (centres undefined)	active
CCOC(=O)c1c(C)[nH]c(C)c1S(=O)(=O)N1CCCC(C(=O)NCc2ccccc2Cl)C1 (centres undefined)	inactive
Cc1ccn(CC(=O)NC2CCCN(Cc3ccccc3F)C2)n1 (centres undefined)	inactive
CCOc1ccc(C(=O)NC2CCN(S(=O)(=O)CC)CC2)cc1	inactive
O=C(N/N=C/c1ccc(Cl)c(Cl)c1)c1ccc2nc[nH]c2c1	active
CCc1nc(Nc2ccc3nccnc3c2)c2oc3ccccc3c2n1	active
O=C(O)c1ccc(/C=N/NC(=O)c2ccc(Br)cc2)cc1	inactive
CCCOC1CCCN(Cc2cn(C)nc2-c2ccccc2F)C1 (centres undefined)	inactive
N#CC1=C(N)N(c2ccc(F)cc2)C(=O)C1	inactive
O=C(O)c1ccc(OCC2CCCO2)cc1 (centres undefined)	inactive
O=C(NCCCn1ccnc1)c1cc2c(s1)CCCC2	inactive
Cc1n[nH]c(=O)c2c(NC(=O)CSc3cc(Cl)ccc3Cl)oc(C)c12	inactive
CCSc1nc(C)nc2c1oc1ccccc12	inactive
Cc1ccc(CNC(=O)C2CCCN(S(C)(=O)=O)C2)cc1 (centres undefined)	inactive
O=C(N/N=C/c1ccc(OCC2COCCO2)cc1)c1ccc(Br)cc1 (centres undefined)	active
CC1(C(=O)NS(=O)(=O)c2ccccc2Cl)CCN1C(=O)c1cccc(F)c1 (centres undefined)	inactive
Cc1nc2ccc(C(=O)N/N=C/c3ccc(O)cc3)cc2[nH]1	inactive
Cc1cc(C)cc(N)c1	inactive
Cc1sc2ncn(CC(=O)NCCCC(=O)NCc3ccc(F)cc3)c(=O)c2c1C	inactive
CCc1nc(Nc2ccc(NC(C)=O)cc2)c2oc3ccccc3c2n1	inactive
O=C(NC(Cc1c[nH]c2ccccc12)C(=O)O)/C(=C/c1ccco1)NC(=O)c1ccccc1 (centres undefined)	inactive
CC(=O)Nc1ccc(S(=O)(=O)Oc2ccc(/C=N/N=C3/NC(=O)C(CC(=O)O)S3)cc2)cc1 (centres undefined)	inactive
